B1: NECAB1 (parent)
chain: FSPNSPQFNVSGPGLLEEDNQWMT

# Variants of: B1
# TEST_DESCRIPTION: protein stability index of a GFP-peptide fusion (GPS, HEK-293T) (PSI 1-6); higher = more stable;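 also: lentivirally expressed fusions sorted by FACS into six bins by GFP to DsRed ratio, PSI derived from sequencing read proportions per bin multiplied by bin number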
# STUDY_CONDITIONS: c terminus: a fixed tail appended
Would you mind labelling by protein stability index? At or over 3 is true, under is false.

1) FSPNSPQFAVSGPGLLEEDNQWMT [N9A] | false
2) FSPNSPQFNESGPGLLEEDNQWMT [V10E] | true
3) FSPNSPQFMVSGPGLLEEDNQWMT [N9M] | false

Query: Is it the case that FSPNSPQFNVSGPGLEEEDNQWMT [L16E] has protein stability index reaching or exceeding 3?
Reply: true

Query: Does the reported protein stability index for FSPNSPQFNVSGPGLLEEDGQWMT [N20G] fall at or above the 3 mark?
Reply: false

Query: Threshold query (protein stability index >= 3) on FSPNSPQFNVSGPGLLEEDQQWMT [N20Q]
Reply: false

Query: Confirm if protein stability index reported for the variant FSPNSPPFNVSGPGLLEEDNQWMT [Q7P] is 3 or above.
Reply: false

Query: Record FSPNSPQFNVSGPGLLEEDNQWMK [T24K] ; criterion: protein stability index no lower than 3. Met?
Reply: false

Query: Textbook exercise: given the entry FSPNSPQFNVSGPGLLEEKNQWMT [D19K] , state whether its protein stability index is greater than or equal to 3.
Reply: false

Query: Is protein stability index for FSPNSPQFNVSGPGLLEEDNEWMT [Q21E] at or above 3?
Reply: true

Cited source for all entries: the supplement of paper PMC10567573
